- protocol: Novel Modifiers of Survival Motor Neuron (SMN) Protein: Gene Identification via Genome-wide siRNA Screen;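 note: luminescence tracks full-length SMN protein made from the SMN2 reporter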
- conditionSummary: HEK293T SMN2-luciferase reporter, siRNA knockdown, 72 h; actives lie on both sides
The whole screen tested about 31,000 sequences, of which about 1,400 (4.5%) were called active. The full list was thinned out, with actives kept by preference.

sequenceString | median seed-adjusted z-score
UAAAAUCUAGGGAUCCAAUTT against POLR2K | -3.72
CGGAUUAUCUUCUAUCUAUTT against SLC6A14 | 0
GUGACUCCGUGUAUACUUATT against GCA | -0.162
GAACCAUACAUACUACAGATT against WDR31 | 0.796
GGACGAGAGAUGUACAUUATT against CNGA1 | -1.08
GCUCGAUCCCUGCAGAUUATT against LCOR | -0.0435

====

- protocol: Novel Modifiers of Survival Motor Neuron (SMN) Protein: Gene Identification via Genome-wide siRNA Screen;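 note: luminescence tracks full-length SMN protein made from the SMN2 reporter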
- conditionSummary: HEK293T SMN2-luciferase reporter, siRNA knockdown, 72 h; actives lie on both sides
Screen size: about 31,000 sequences; about 1,400 (4.5%) were called active. The entries come from a sample that favours actives as a whole.
# median seed-adjusted z-score listing for each entry below

sequenceString | median seed-adjusted z-score
GCUAAACAGUUCGCAAGGATT against IGF2R | 0.274 (inactive)
CCACCCUAGUUAGACAUCATT against ZNF419 | 0.0405 (inactive)
GGAAUGCUAUGAUAGACGATT against GNAQ | -1.23 (active)
AGAAUGUGCGGCUUAUUGATT against CCDC88B | -0.153 (inactive)
GGCUUAUACAAUGUCAACATT against HOXA7 | -0.129 (inactive)
GAGUAAACCUCGAAACCGATT against MAP3K13 | -0.121 (inactive)

====

- protocol: Novel Modifiers of Survival Motor Neuron (SMN) Protein: Gene Identification via Genome-wide siRNA Screen;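 note: luminescence tracks full-length SMN protein made from the SMN2 reporter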
- conditionSummary: HEK293T SMN2-luciferase reporter, siRNA knockdown, 72 h; actives lie on both sides
About 1,400 (4.5%) of roughly 31,000 sequences were called active.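 Rule for the calls: active = median seed-adjusted z-score above 1 or below -1; inactive = the rest.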 The full list was thinned out, with actives kept by preference.
Classes used: 1 for active, -1 for inactive

sequenceString | label
AGAAUACGAUGACCACCAATT against RING1 | -1
CGGUGACCAUAGUACAACATT against FOXK2 | -1
GCGAGUAGAUAAUAUCGAATT against MAP3K5 | -1
CGUCGCGCCCUGUACAUAATT against GPR35 | 1
GAGCAGGUGUUAUUAUGGATT against CLCN3 | -1
CGGCCGAAGUAGUAAAAGATT against ADA | -1
GGACGCAGGUUUCUGUUUATT against CHRFAM7A | -1
GAAAAUUGCUCACUUUGAUTT against DAPK2 | -1
GGUCGAAUGAUAAGGUGUATT against PTK2 | -1
GGUUAAUAUUGCGAAAGUATT against TXNDC1 | -1
GCAUAUACCAUCGCUGUAATT against SUPT16H | 1
GGUGUUUGAUAUUCGAAUUTT against USP40 | -1

====

- protocol: Novel Modifiers of Survival Motor Neuron (SMN) Protein: Gene Identification via Genome-wide siRNA Screen;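 note: luminescence tracks full-length SMN protein made from the SMN2 reporter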
- conditionSummary: HEK293T SMN2-luciferase reporter, siRNA knockdown, 72 h; actives lie on both sides
Hit rate of the full screen: of about 31,000 sequences, about 1,400 (4.5%) were called active. Only a selection was taken, and actives are over-represented in it overall.
observationType: median seed-adjusted z-score

sequenceString | obsValue
GCAACUUCCUAGAACUGUUTT against PCYT1B | 0.177
GAAAGACUCUUACCAUUUUTT against SSBP4 | 0.254
GGAUUUUGCCUUAGCGGUATT against OSBPL8 | 0.231
CCAUCAUCCCUAAGCGAAUTT against REXO1 | -0.748
GGUUUCAAGAUAACCCAAATT against POU2F3 | -1.53
GGAAGAAAAUAGUGCUGCATT against BARX1 | 1.63
GGAUGGCAGGGAUUCCGAATT against ZNF213 | 1.37
UGUUCAGUCUGGAAUUUCATT against MAP2K1 | 0.942
CAGUCGACCAGUACAUCAATT against PMS1 | 0.0538
GUCAUCAACGGAAACAUAATT against EIF3G | -0.198
AGUCUGUUGGUGCACAAAATT against MDM2 | 0.258
GCCUAGAGGUUUGCCCUGATT against ATHL1 | 0

====

# median seed-adjusted z-score listing for each entry below
- protocol: Novel Modifiers of Survival Motor Neuron (SMN) Protein: Gene Identification via Genome-wide siRNA Screen;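 note: luminescence tracks full-length SMN protein made from the SMN2 reporter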
- conditionSummary: HEK293T SMN2-luciferase reporter, siRNA knockdown, 72 h; actives lie on both sides
The campaign covered roughly 31,000 sequences. About 1,400 (4.5%) were called active. This is one part of a sample in which actives are shown more often than they occur.
observationType: median seed-adjusted z-score

sequenceString | obsValue
CAAGGUUCUUGGUUGGGUATT against ZDHHC13 | -0.381
CCCUCCUCGUGGAACCAUATT against NEURL2 | 1.39
UGACCCAGAUUAUCGCCGATT against POLR2I | -3.27
GCUUUGACCUUCUUAGCAATT against SMARCAL1 | -0.145
GGACCGCUACUCUGAGUAUTT against KCNH6 | 0.424
GGGAGAUUCUCCAACUAAATT against SR140 | 1.16
GCAUGUUAUUGAAUUAUCATT against TM9SF2 | 1.09
GGGAUAAGCUGAUAAAGGATT against NDUFS5 | -1.35
GAAGGAUUUUGAGCCCGAATT against LETM1 | -0.491
CCAUCGCUUUCAGCAGACATT against DLX6 | 0.0275
CAACGACUACAGGUCUGUATT against ITGA11 | 0.496
GCUUAUUAGCCUCCAAUUUTT against ZSCAN5A | 0.31

====

# median seed-adjusted z-score listing for each entry below
- protocol: Novel Modifiers of Survival Motor Neuron (SMN) Protein: Gene Identification via Genome-wide siRNA Screen;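 note: luminescence tracks full-length SMN protein made from the SMN2 reporter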
- conditionSummary: HEK293T SMN2-luciferase reporter, siRNA knockdown, 72 h; actives lie on both sides
About 1,400 (4.5%) of roughly 31,000 sequences were called active. Many of the other results were omitted from the sample, so actives are more common in it than they were.
observationType: median seed-adjusted z-score

sequenceString | obsValue
GCACCAUAGUGACACUGAATT against IFNAR2 | -0.219 (inactive)
GGAUACAAAGCACAUAACATT against UBE2D4 | 0.232 (inactive)
GAGUGAGAGCUGUAGAAAATT against CREB3 | 0.0509 (inactive)
GAAUUAUGGAUGACGAUAATT against CAPSL | -0.168 (inactive)
ACUUCUACAUCAACGACAATT against ALDH4A1 | 0.0362 (inactive)
GGGAAGUCUUUUAAUCGUATT against ZNF780B | -0.332 (inactive)

====

- protocol: Novel Modifiers of Survival Motor Neuron (SMN) Protein: Gene Identification via Genome-wide siRNA Screen;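 note: luminescence tracks full-length SMN protein made from the SMN2 reporter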
- conditionSummary: HEK293T SMN2-luciferase reporter, siRNA knockdown, 72 h; actives lie on both sides
The campaign covered roughly 31,000 sequences. About 1,400 (4.5%) were called active.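 Rule for the calls: active = median seed-adjusted z-score above 1 or below -1; inactive = the rest.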 Shown is part of a subset that was picked to be rich in actives.
Classes used: True = active, False = inactive

sequenceString | label
GCCUUUCAGCAUGCGGUUATT against GDPD1 | False
GAUUUUGUGCGAUCCAUAATT against CBARA1 | False
GAUCAAGACUCUGCGCCUATT against HAND1 | False
GGAGAUCCGUGAUGUAACATT against RUVBL2 | False
CCAGGUUUAUGUAGAAGUUTT against NMI | False
CAGCUGAUGCGGACCAAGATT against RASSF4 | False
AGUGGAUUGUAGACAUGGATT against UBE2W | False
GCAUCCGUGGAAAUGGUUATT against ASNS | True
CCACAUCAACAGUGCCUUUTT against ACOT11 | False
CCGACUACUCCAACGAGAATT against MASP2 | False
GACUGGAAAUGAUUCGAGATT against RTCD1 | False
GCAAGAUAACAAUUGAUAUTT against ANKRD30A | False

====

- protocol: Novel Modifiers of Survival Motor Neuron (SMN) Protein: Gene Identification via Genome-wide siRNA Screen;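 note: luminescence tracks full-length SMN protein made from the SMN2 reporter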
- conditionSummary: HEK293T SMN2-luciferase reporter, siRNA knockdown, 72 h; actives lie on both sides
Hit rate of the full screen: of about 31,000 sequences, about 1,400 (4.5%) were called active. The entries come from a sample that favours actives as a whole.
# median seed-adjusted z-score listing for each entry below

sequenceString | median seed-adjusted z-score
GACCCGGUAUAUGAACUCATT against UCP3 | 1.23
CACUGAUUCUGAAGGCGAATT against RPS6KA1 | 0.194
CCUCCUUGUUAGUGUCUUUTT against CLEC11A | -1.1
GCUGAAAUCAAAAAGCGGATT against RAB1B | 1.55
GCUAAAGAGAGAUAUGGAATT against DARS | 0
CAAUUGGAAUCGUCUUUUUTT against UBAC2 | 0.611
GCUUGUUCGGCUACACGAATT against CYP8B1 | 0
GGACCAUUUAGAGAAGGUUTT against WARS2 | 0.21
GCACGAAGCUUUCCCUGGATT against KRT78 | 0.306
GCAACUACUUCCGAUCUAATT against KIF17 | -0.151
GAAGGGUUAUCGUCGGGAATT against SLC6A6 | 0.0448
UCAAUGCCUCCUUAAUUUUTT against ZNF321 | -0.642
